# Target of assay: HLA-A*02:12
# Assay notes: IEDB peptide-MHC binding, purified MHC/competitive/fluorescence; filed as Kd, often an IC50 or EC50 that approximates it; bounds were set here for any values at or beyond the usual limits of such assays
# Experimental context: source organism: Mycobacterium tuberculosis C
pKd: −log10 of the molar value.
Outcome measure: pKd

> print(dat)
   seq.string  outcome.measure  result
1   SLVAIHLAC              pKd  ≤ 4.70

----------
# Target of assay: HLA-A*11:01
# Assay notes: IEDB peptide-MHC binding, purified MHC/direct/fluorescence; filed as Kd, often an IC50 or EC50 that approximates it; bounds were set here for any values at or beyond the usual limits of such assays
# Experimental context: source organism: Rickettsia massiliae
Outcome measure: Kd (nM)

> print(dat)
   seq.string  target.of.assay  unit.tag  quantitative.result
1   MGFGHRIYK      HLA-A*11:01        nM                  3.2

----------
# Target of assay: HLA-A*11:01
# Assay notes: IEDB peptide-MHC binding, purified MHC/competitive/radioactivity; filed as Kd, often an IC50 or EC50 that approximates it; bounds were set here for any values at or beyond the usual limits of such assays
# Experimental context: source organism: Mammarenavirus brazilense
Outcome measure: Kd (µM)

> print(dat)
   seq.string  outcome.measure  quantitative.result
1  SVTLDFTKFH               Kd                  7.1
2   MVNHSTYYV               Kd                 0.59

----------
# Target of assay: HLA-B*27:05
# Assay notes: IEDB peptide-MHC binding, purified MHC/direct/fluorescence; filed as Kd, often an IC50 or EC50 that approximates it; bounds were set here for any values at or beyond the usual limits of such assays
# Experimental context: source organism: Vibrio parahaemolyticus
pKd: −log10 of the molar value.
Reported pKd by item:
Outcome measure: pKd

> print(dat)
   seq.string  result
1   NSDPEFNVL  ≤ 4.70
2   VMETENALF  ≤ 4.70

----------
# Target of assay: HLA-B*27:05
# Assay notes: IEDB peptide-MHC binding, purified MHC/direct/fluorescence; filed as Kd, often an IC50 or EC50 that approximates it; bounds were set here for any values at or beyond the usual limits of such assays
# Experimental context: source organism: Francisella tularensis subsp. holarctica LVS
pKd: −log10 of the molar value.
Outcome measure: pKd

> print(dat)
   seq.string  quantitative.result
1   KRINSLIKY                 6.88

----------
Reported Kd by item:
# Target of assay: HLA-B*15:01
# Assay notes: IEDB peptide-MHC binding, purified MHC/competitive/radioactivity; filed as Kd, often an IC50 or EC50 that approximates it; bounds were set here for any values at or beyond the usual limits of such assays
# Experimental context: source organism: Dengue virus 2 Jamaica/1409/1983
Outcome measure: Kd (nM)

> print(dat)
   seq.string  quantitative.result
1  RLRGEARKTF                 49.3
2   LMCHATFTM                 9.45
3  ALHQVFGAIY                 4.38
4  HTAEAGGRAY                  115
5  MMATIGIALL                   15
6   VMVMVGATM                 2.77
